Target chain: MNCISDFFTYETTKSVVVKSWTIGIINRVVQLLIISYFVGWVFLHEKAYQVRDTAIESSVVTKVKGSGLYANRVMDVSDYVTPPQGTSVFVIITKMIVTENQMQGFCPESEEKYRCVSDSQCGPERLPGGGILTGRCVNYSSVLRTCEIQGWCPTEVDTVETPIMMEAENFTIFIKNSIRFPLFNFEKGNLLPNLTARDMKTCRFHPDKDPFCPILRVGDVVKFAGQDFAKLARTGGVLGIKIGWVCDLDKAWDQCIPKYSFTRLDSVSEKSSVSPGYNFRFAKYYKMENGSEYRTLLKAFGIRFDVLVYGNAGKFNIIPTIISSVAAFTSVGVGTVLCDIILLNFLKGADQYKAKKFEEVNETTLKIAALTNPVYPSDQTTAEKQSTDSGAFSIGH
pIC50: −log10 of the molar value.
parameter: pIC50

[a] CCOC(=O)c1ccc(N2C(=O)C(O)=C(NC(=O)c3ccc(OC)cc3)C2c2ccccc2)cc1 (stereo not given)
[b] CCOC(=O)c1ccc(N2C(=O)C(O)=C(C(=O)c3ccc(OC)cc3)C2C2CCCCC2)cc1 (stereo not given)
[c] CCOC(=O)c1ccc(N2C(=O)C(O)=C(C(=O)c3ccc(OC)cc3)C2c2cccc(F)c2)cc1 (stereo not given)
Order the entries above from lowest to highest pIC50. When ranking, write the labels in the order the request describes.
a, c, b
(a: 5.86, c: 7.52, b: 8.00)
